Record form. Attribute: LD50. Fill in for each entry.
# TEST_PROTOCOL: Acute toxicity in the guinea pig (DL50, Litchfield and Wilcoxon method)
# TEST_CONDITIONS: in vivo, po, os

## Task Looking for the measured LD50 of COc1cc(C)ccc1OCC(=O)O[C@H]1CC[C@H](NCc2cc(Br)cc(Br)c2N)CC1 , can you help?
## Result 1700 mg/kg

## Task // returns reported LD50 for input Cc1ccc(OCC(=O)O[C@H]2CC[C@H](NCc3cc(Br)cc(Br)c3N)CC2)cc1
## Result 1600 mg/kg

## Task For the compound Cc1ccc(C(C)C)c(OCC(=O)O[C@H]2CC[C@H](NCc3cc(Br)cc(Br)c3N)CC2)c1 , what LD50 is on record?
## Result 1680 mg/kg

## Task So what does the record say about LD50 for Cc1ccccc1OCC(=O)O[C@H]1CC[C@H](NCc2cc(Br)cc(Br)c2N)CC1 ?
## Result 1610 mg/kg

## Task Quick one: LD50 for COc1ccccc1OCC(=O)O[C@H]1CC[C@H](NCc2cc(Br)cc(Br)c2N)CC1 ?
## Result 1650 mg/kg

## Task What LD50 value was documented for this compound, Nc1c(Br)cc(Br)cc1CN[C@H]1CC[C@H](O)CC1 [Ambroxol Hydrochlorate, reference compound] ?
## Result 1180 mg/kg

## Task Give its LD50 value. Item: Cc1cccc(OCC(=O)O[C@H]2CC[C@H](NCc3cc(Br)cc(Br)c3N)CC2)c1
## Result 1600 mg/kg

## Task What value of measured LD50 is listed for Cc1ccc(C(C)C)cc1OCC(=O)O[C@H]1CC[C@H](NCc2cc(Br)cc(Br)c2N)CC1 ?
## Result 1700 mg/kg
